# System: LOX IMVI melanoma
# ASSAY PROCEDURE: NCI-60 one-dose screen, 48 h
# MEASUREMENT CONTEXT: 10 µM unless noted
This is part of a sample that, as a whole, favours compounds with a hit. Of some 83,000 tested, about 20% had one in any assay. Active and inactive are the calls of the source. The calls were made as follows: active = growth percent below 10; inactive = the rest.
API: response.call in active, inactive

IN: Each molecule tested received a call. Report the one for `CC1(C)CC[C@]2(C(=O)N3CCOCC3)CC[C@]3(C)C(=CC[C@@H]4[C@@]5(C)CC[C@H](OC(=O)c6cccnc6)C(C)(C)[C@@H]5CC[C@]43C)[C@@H]2C1` .
OUT: inactive

IN: Kindly provide the recorded test outcome for the following molecule: `N#Cc1c(-c2cccc(Cl)c2)cc(-c2cccc(F)c2)[nH]c1=O`
OUT: inactive

IN: # fetch the recorded call for `COc1cc(N2C(=O)c3nccnc3C2=O)cc(OC)c1OC` here
OUT: inactive

IN: Called result for COc1cc(OC)cc(C2CC(=O)Nc3c2c(C)nn3-c2nc3ccccc3[nH]2)c1 (stereo unspecified)
OUT: active

IN: For this molecule, state the assay outcome: CC(=O)C(C)Cc1cc2c(cc1C)C(C)(C)CCC2(C)C (stereo unspecified)
OUT: inactive

IN: For `N#Cc1c(-c2ccccn2)[nH]c(=S)[nH]c1=O` , what call appears in the results of this test?
OUT: inactive

IN: So what was the verdict on `Nc1ccc2c(c1)c(N)nn2C(=O)Nc1ccc(Cc2ccccc2)cc1` in this test?
OUT: inactive

IN: Given `O=C1N=c2cc3c(cc2=C/C1=C/c1sc(=S)n(CCc2ccc(O)cc2)c1O)OCCO3` , state the outcome it received in this test.
OUT: active

New cases:
IN: So what was the verdict on `Cc1ccc(Cl)cc1NC(=O)c1cc2ccccc2cc1O` in this test?
OUT: active

IN: // param item: `O=C(NCCCNc1cc(-c2cn(-c3ccccc3)nc2-c2cccc(O)c2)ccn1)c1ccc(F)cc1` ; yields the recorded call
OUT: inactive

IN: Dear colleague, could you share the recorded outcome for `C[n+]1cccc(CC(=O)NO)c1` when you have a moment?
OUT: inactive

IN: Would you mind telling me which call this test gave `O=C1/C(=C\c2c[nH]c3ccccc23)c2ccccc2N1c1c(Cl)cccc1Cl` ?
OUT: active

IN: Called result for `CCc1ccccc1-n1c(-c2ccc(Cl)cc2)cc(-c2ccc(OC)cc2)c(C#N)c1=O`
OUT: inactive

IN: Give the logged outcome of this assay for the following molecule: `COc1ccc(C(=O)COc2ccc(/C=C3\Oc4ccccc4C3=O)cc2)cc1`
OUT: inactive

IN: GET /call?item= `Fc1cnc(NC2CC2)nc1-c1cnc2ccc(N3CCOCC3)cn12` returns the recorded outcome of this test.
OUT: active

IN: Which outcome did this test record for the molecule `COc1ccc(NC(=O)CSc2nc(C)c(C(C)=O)n2-c2ccc(Cl)cc2)cc1` ?
OUT: inactive

IN: Each molecule tested received a call. Report the one for `CC/C=C\CCC/C=C1/C(=O)C=C[C@@H]1C/C=C\CCCC(=O)O` .
OUT: active

IN: Called result for `C=CCn1c(C)nc2cc(Nc3nc(N4CCCC4)nc4ccccc34)ccc21`
OUT: active

IN: How was Cc1cc(O)c(C2=NN(c3ccc(S(N)(=O)=O)cc3)C(c3ccccc3Cl)C2)cc1Cl (stereo unspecified) classified in this test?
OUT: active

IN: For this molecule, state the assay outcome: `CCCCCCCCCCCCCCCCCCOc1ccccc1CC(=O)OCCC[N+](C)(C)C`
OUT: inactive

IN: Fill in: this test's call for `COc1ccc(/C=C/c2c(C(=O)/C=C/c3ccc(F)cc3)c(C)nc3ccccc23)cc1` is ___
OUT: inactive

Origin of the recorded values: PubChem BioAssay (NCI)
